Target: human GLP-1 receptor (human, UniProt P43220 24-463)
Assay: cell-based or functional assay
Bridges are numbered along the chain shown (N, C = ends). Where no end group is shown, it is not given here. [ ]: non-standard residue; d: D form. The star is where a group is joined. Acetyl(2-(4-imidazolyl)) = O=C(Cc1c[nH]cn1)*; Aib = CC(C)(N)C(=O)O
readout: In vitro activity relative to native peptide (%) vs. GLP-1

{"columns": ["binder", "measurement.units", "comparison.sign", "reading"],
 "data": [
  ["[Acetyl(2-(4-imidazolyl))]GQGTFTSDLSIQYDSEHQRDFIEWLKDTGPSSGAPPPSHG [triple agonist of SEQ ID NO: 19]", "%", "<", 0.1],
  ["Y[Aib]QGTFTSDYSKALDEKAAKEFVQWLLDQHPSSGQPPPSC (bridge 16-20) [triple agonist of SEQ ID NO: 100]", "%", "=", 42.2],
  ["[Acetyl(2-(4-imidazolyl))]GQGTFTSDLSIQYEEEAQQDFVEWLKDTGPSSGAPPPSHG [triple agonist of SEQ ID NO: 20]", "%", "<", 0.1],
  ["{Acetyl(2-(4-imidazolyl))}-[Aib]QGTFTSDYSIAMDEIHQKDFVNWLLNTKC (bridge 15-19) [triple agonist of SEQ ID NO: 94]", "%", "=", 0.5],
  ["H[Aib]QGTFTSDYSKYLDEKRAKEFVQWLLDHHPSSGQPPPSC (bridge 16-20) [triple agonist of SEQ ID NO: 50]", "%", "=", 67.4],
  ["H[Aib]QGTFTSDCSKYLDSRAAQDFVQWLLDGGPSSGAPPPS [triple agonist of SEQ ID NO: 26]", "%", "=", 64.5],
  ["{Acetyl(2-(4-imidazolyl))}-[Aib]QGTFTSDYSKYLDEKRQKEFVNWLLAQC (bridge 15-19) [triple agonist of SEQ ID NO: 86]", "%", "=", 28.4],
  ["H[Aib]QGTFTSDVSKYLDGQAAQEFVAWLLKGC [triple agonist of SEQ ID NO: 8]", "%", "=", 14.2],
  ["H[Aib]EGTFTSDYSIAMDEIHQKDFVNWLLAQKC (bridge 16-20) [triple agonist of SEQ ID NO: 79]", "%", "=", 41.5],
  ["[Acetyl(2-(4-imidazolyl))][Aib]QGTFTSDKSSYLDERAAQDFVQWLLDGGPSSGAPPPSS (not fully specified) [triple agonist of SEQ ID NO: 38]", "%", "=", 2.3]
]}
